The reported numbers originate from patent US20200247894A1.

Some binders, each annotated with its measured 100 nM Ag Bound.
Biological target: T1, D2 domain of human IL2Rγ extracellular domain expressed with a C-terminal myc-myc-hexahistidine tag (human)
T1 construct: also called human IL2Rγ domain 2
T1 chain: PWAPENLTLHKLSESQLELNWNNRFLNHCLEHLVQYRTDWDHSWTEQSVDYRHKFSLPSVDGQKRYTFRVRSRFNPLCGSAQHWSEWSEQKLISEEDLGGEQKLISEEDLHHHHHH
Assay: SPR, mAb captured on anti-hFc, 37 C
Value expressed in RU; do not type the unit.

Reference set, count: 4
H4H12871P (antibody, human IgG4 S228P, kappa, V domains shown, human IgG4; also called REGN9434) VH: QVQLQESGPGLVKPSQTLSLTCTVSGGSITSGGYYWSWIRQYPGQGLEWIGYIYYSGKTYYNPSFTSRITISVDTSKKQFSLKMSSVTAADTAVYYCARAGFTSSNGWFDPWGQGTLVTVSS VL: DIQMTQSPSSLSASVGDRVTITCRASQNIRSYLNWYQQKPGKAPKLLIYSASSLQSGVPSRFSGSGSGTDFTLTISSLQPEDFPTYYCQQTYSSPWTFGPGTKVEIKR; -1
H4H12863P (antibody, human IgG4 S228P, kappa, V domains shown, human IgG4) VH: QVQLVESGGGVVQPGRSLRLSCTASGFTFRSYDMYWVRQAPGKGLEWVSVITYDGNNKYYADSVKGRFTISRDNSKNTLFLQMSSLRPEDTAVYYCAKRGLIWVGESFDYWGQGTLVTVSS VL: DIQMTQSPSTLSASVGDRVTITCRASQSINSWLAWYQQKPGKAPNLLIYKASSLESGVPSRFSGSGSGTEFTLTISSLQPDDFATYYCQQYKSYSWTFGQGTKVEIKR; -1
H4H12900P (antibody, human IgG4 S228P, kappa, V domains shown, human IgG4) VH: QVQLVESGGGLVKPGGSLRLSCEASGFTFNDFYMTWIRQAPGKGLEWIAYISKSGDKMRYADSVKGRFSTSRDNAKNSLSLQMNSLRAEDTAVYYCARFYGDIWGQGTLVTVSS VL: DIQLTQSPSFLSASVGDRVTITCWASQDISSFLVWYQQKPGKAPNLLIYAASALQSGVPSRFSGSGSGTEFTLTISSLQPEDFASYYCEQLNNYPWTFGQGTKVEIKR; 1
H4H13538P (antibody, human IgG4 S228P, kappa, V domains shown, human IgG4) VH: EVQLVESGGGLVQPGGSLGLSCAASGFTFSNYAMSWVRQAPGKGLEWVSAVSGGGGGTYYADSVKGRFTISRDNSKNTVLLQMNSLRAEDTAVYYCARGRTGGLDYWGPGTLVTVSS VL: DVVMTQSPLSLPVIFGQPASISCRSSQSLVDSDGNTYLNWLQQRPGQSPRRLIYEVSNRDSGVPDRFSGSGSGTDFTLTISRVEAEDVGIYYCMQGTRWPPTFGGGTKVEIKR; 6

Okay, next one:
According to the records, this binder H4H13541P (antibody, human IgG4 S228P, kappa, V domains shown, human IgG4) VH: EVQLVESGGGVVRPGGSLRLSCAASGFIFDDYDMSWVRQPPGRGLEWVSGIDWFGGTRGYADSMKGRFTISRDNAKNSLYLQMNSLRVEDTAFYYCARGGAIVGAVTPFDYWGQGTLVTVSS VL: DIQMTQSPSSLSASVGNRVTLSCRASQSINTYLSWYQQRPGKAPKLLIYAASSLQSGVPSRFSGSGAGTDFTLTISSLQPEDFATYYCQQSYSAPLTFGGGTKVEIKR displays 100 nM Ag Bound of 7
